Entry source: the supplement of paper PMC3545927

Molecular target: furin, P09958;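 also: purified furin at 1:10 enzyme:substrate in 50 mM HEPES pH 7.5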
Sequence (P09958 whole entry): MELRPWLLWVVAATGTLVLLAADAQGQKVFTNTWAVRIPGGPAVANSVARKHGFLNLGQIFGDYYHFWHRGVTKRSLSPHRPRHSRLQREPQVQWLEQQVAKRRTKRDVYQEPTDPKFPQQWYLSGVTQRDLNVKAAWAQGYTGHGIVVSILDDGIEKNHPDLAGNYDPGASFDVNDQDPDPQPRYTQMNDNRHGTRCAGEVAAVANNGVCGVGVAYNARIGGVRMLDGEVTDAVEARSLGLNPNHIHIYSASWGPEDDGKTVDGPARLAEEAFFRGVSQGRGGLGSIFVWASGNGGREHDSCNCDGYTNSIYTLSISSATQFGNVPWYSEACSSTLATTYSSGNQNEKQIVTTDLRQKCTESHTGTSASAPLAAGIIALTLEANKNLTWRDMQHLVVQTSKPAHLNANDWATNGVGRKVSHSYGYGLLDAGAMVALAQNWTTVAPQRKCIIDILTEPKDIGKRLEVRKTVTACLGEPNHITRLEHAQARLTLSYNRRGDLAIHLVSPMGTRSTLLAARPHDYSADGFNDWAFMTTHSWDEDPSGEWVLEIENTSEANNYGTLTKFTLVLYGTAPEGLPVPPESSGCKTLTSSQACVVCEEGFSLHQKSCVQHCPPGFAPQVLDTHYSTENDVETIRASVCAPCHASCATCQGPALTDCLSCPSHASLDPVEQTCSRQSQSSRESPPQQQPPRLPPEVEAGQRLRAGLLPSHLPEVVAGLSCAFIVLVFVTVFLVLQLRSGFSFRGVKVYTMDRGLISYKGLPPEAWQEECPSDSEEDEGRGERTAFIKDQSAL
Experiment: furin cleavage Z-score vs untreated control; higher = more cleavage, active = 3.5 or more, inactive = 1 or less, 8 variable residues between constant flanks
Conditions: 15 min
This is one part of the list. No count for the full screen is at hand.
Reported values of furin cleavage Z-score for individual entries
A bare number is all that is needed in reply.

Some solved entries appear below for comparison.
{"QUERY SEQUENCE": "CAMEECSGHLAGNASASA [HC1736]", "REPORTED METRIC": "furin cleavage Z-score", "RECORDED RESULT": -0.79}
{"QUERY SEQUENCE": "CAEVVTSTYVAGNASASA [HC2229]", "REPORTED METRIC": "furin cleavage Z-score", "RECORDED RESULT": 0.18}
{"QUERY SEQUENCE": "CARIKRAGGFAGNASASA [FS-2261]", "REPORTED METRIC": "furin cleavage Z-score", "RECORDED RESULT": 8.63}
{"QUERY SEQUENCE": "CALVAFKIMSAGNASASA [HC1092]", "REPORTED METRIC": "furin cleavage Z-score", "RECORDED RESULT": -0.454}

-- ask Look up furin cleavage Z-score of CARAKKIFGWAGNASASA [FS-1680] and report it.
-- reply 0.732

-- ask Give the value of furin cleavage Z-score reported for the following: CADTPCSGSWAGNASASA [HC1831]
-- reply -0.574

-- ask Tell me measured furin cleavage Z-score for CAKVKANLLSAGNASASA [HC1409] please.
-- reply -1.82
